System: rodent lifetime carcinogenesis bioassay, tumor incidence TD50
Assay: carcinogenic potency in animals, long-term in vivo studies, CPDB compilation (AID 1745844)
Conditions: mouse; strain C57BL/6; males; by gavage; site: liver; lesion: liver-cell tumor; dosed 104 weeks; study length 114 weeks
Calls of active or inactive are those of the source. The rule behind the calls is not given here.
valueKind: TD50

Exercise: Requested field: TD50. Item: CC(C)C(C(=O)OC(C#N)c1cccc(Oc2ccccc2)c1)c1ccc(Cl)cc1 (stereo unspecified)
Key: 328 mg/kg/day (inactive)

----------
System: rodent lifetime carcinogenesis bioassay, tumor incidence TD50
Test: carcinogenic potency in animals, long-term in vivo studies, CPDB compilation (AID 1745844)
Settings: rat; strain Fischer 344; females; in drinking water; site: liver; lesion: several types; types named in the paper; dosed 104 weeks; study length 132 weeks
valueKind: TD50
Kindly format the answer as number then unit.

Exercise: Short answer please: TD50, rodent lifetime carcinogenesis bioassay, tumor incidence TD50, entry C=CC=O
Key: 188 mg/kg/day

All figures here come from PubChem BioAssay AID1745844.
